# Test system: wheat germ agglutinin (Triticum aestivum), Alexa647-labelled
# Protocol: Alexa647-WGA lectin binding to printed small molecules – biochemical, small-molecule microarray, 635/667 nm fluorescence, artefact control for SMM control-protein annotation, profiling panel (AID 1140);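 further: score merges 667 nm feature emission with signal to noise over triplicate slides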
# Run Parameters: WGA-A647 binding, 635 nm fluorescence, higher = more signal
Experimental Readout: composite z-score
Returns: the value as a bare number; no unit string appended.

Compound	composite z-score
COC(=O)[C@H]1[C@H](c2ccccc2)C(=O)[C@]2(O)c3ccccc3O[C@@]12c1ccccc1	0.167
CCOC(=O)[C@H]1CC=C2C(=O)Oc3ccc(Br)cc3[C@@H]21	-0.0424
CCCc1cc2c(n1Cc1cccc(Cl)c1)C(C)C1CN(C(=O)c3ccccc3)C(C)(C(=O)OC)C21 (centres undefined)	1.44

Please look at the following compound next.
Exam item: Supply composite z-score value. Item: CN1CCC(c2ccc(CO)cc2)=CC1c1cccs1 (centres undefined)
Marked response: 0.244

----------
# Test System: Neurogenic locus notch homolog protein 3 (Homo sapiens)
# Protocol: small molecules binding NOTCH3 protein – biochemical, 635/667 nm fluorescence, primary screen (AID 1096)
# Run Parameters: small-molecule microarray, 635 nm fluorescence, higher = more signal
Mark Condition not met for composite z-score values under -0.04, and Condition met for everything at or above.

Solved cases below.
Molecule	Assigned Category
CCCc1cc2c(n1CCO)C(C)C1CN(C(=O)c3ccccc3)C(C)(C(=O)OC)C21 (stereo unspecified)	Condition met
C[C@H]1O[C@H]2C3=C(C(=O)[C@@H]4O[C@@H]4[C@@H]3O)[C@@H]1[C@@H]1[C@@H](C)OC=C3[C@@H](O)[C@H]4O[C@H]4C(=O)[C@]312	Condition not met
C=C(CC1(CNP(=O)(c2ccccc2)c2ccccc2)CC1)c1ccccc1	Condition not met
COC(=O)[C@H]1C(=O)c2ccccc2O[C@@](C(=O)OC)(c2ccccc2)[C@@H]1c1ccccc1	Condition not met

Exam item: Reported composite z-score reaches at least -0.04 for CCOC(=O)[C@H]1CC=C2C(=O)Oc3ccccc3[C@@H]21 ?
Marked response: Condition met

----------
# Protocol: probe aXIP binding to arrayed compounds – biochemical, NeuroSMM set, 635/667 nm fluorescence, primary screen (AID 1119);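 further: probe is the protein aXip251-270 applied at 1 µg/mL to compound-printed slides; binding of probe to printed compounds measured as 667 nm fluorescence plus signal to noise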
# Run Parameters: small-molecule microarray; higher = more signal, called active from +8 up or from −8 down unless noted
The source made the active and inactive calls.
Experimental Readout: composite Z-score

Sample records with composite Z-score:
Compound	composite Z-score
COC(=O)[C@H]1[C@@H](O)[C@@]2(O)c3c(OC)cc(OC)cc3O[C@@]2(c2ccc(OC)cc2)[C@@H]1c1ccccc1	-0.619 (inactive)
CCCC[C@@H]1C[C@H]1[C@@H](NP(=O)(c1ccccc1)c1ccccc1)c1ccc(Cl)cc1	0.198 (inactive)
c1ccc(-c2cc3c(nc2-c2ccccc2)CCNC3)cc1	-0.369 (inactive)
O=P(c1ccccc1)(c1ccccc1)N1CC2(CC2)CC(O)(c2ccccc2)C1 (stereo not given)	0.284 (inactive)
COC(=O)[C@@]1(Cc2ccccc2)[C@H]2c3cc(C(=O)N(C)C)[nH]c3C[C@H]2CN1C(=O)c1ccccc1	-0.0667 (inactive)
CN1CCc2nc(CO)c(CO)cc2C1	0.396 (inactive)
CCCc1cc2c(n1Cc1cccc(Cl)c1)C(C)C1CN(C(=O)c3ccccc3)C(C)(C(=O)OC)C21 (stereo not given)	-0.244 (inactive)
CCc1cc2c(nc1CC)CCN(CCC(C)=NOC)C2	0.154 (inactive)
COC(=O)[C@@]1(Cc2ccccc2)[C@H]2c3cc(C(=O)N(C)C)n(C)c3C[C@H]2CN1C(=O)c1ccccc1	-0.183 (inactive)
COc1cc2c(cc1O)C=[N+](C)CC2	-0.296 (inactive)

Exam item: Supply composite Z-score value. Item: COC(=O)[C@H]1[C@H](c2ccccc2)C(=O)[C@]2(O)c3ccccc3O[C@@]12c1ccccc1
Marked response: 0.311 (inactive)

Exam item: Supply composite Z-score value. Item: COc1cc2c(cc1O)C(C)N(C)CC2 (stereo not given)
Marked response: 0.104 (inactive)

Exam item: Supply composite Z-score value. Item: COC(=O)[C@@]1(Cc2ccc(F)cc2)[C@H]2c3cc(C(=O)N(C)C)[nH]c3C[C@H]2CN1C(=O)c1ccccc1
Marked response: 0.495 [setting not given] (inactive)

Exam item: Supply composite Z-score value. Item: COC(=O)C1(C)C=C2C(=C(C)C(=O)C2C)CN1 (stereo not given)
Marked response: 0.727 (inactive)

Exam item: Supply composite Z-score value. Item: OCc1ccc(C2=CC(C3CC3)N(Cc3sc4ccccc4c3Cl)CC2)cc1 (stereo not given)
Marked response: 0.565 (inactive)

Exam item: Supply composite Z-score value. Item: COC(=O)NCC=Cc1nc(CCC=CC(=O)O[C@H]2CC3CC(=O)O[C@@H](C=CCC(C)C)C[C@@H]4CC[C@H](C)[C@@H](C[C@@H](OC)C[C@H](C2)O3)O4)co1
Marked response: 0.0506 (inactive)

Exam item: Supply composite Z-score value. Item: CCCc1cc2c(n1Cc1ccc(C)cc1)C(C)C1CN(C(=O)c3ccccc3)C(C)(C(=O)OC)C21 (stereo not given)
Marked response: 1.3 (inactive)

----------
# Protocol: growth of efflux-deficient E. coli DRC39 – strain DRC39, OD650, 48 h, E. coli filamentation inducers, primary screen (AID 1179);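 further: screen aims at cell division blockers that make cells filament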
# Run Parameters: E. coli DRC39 delta-acrAB growth, higher = more signal, called active from +8 up or from −8 down unless noted
Mark Not fulfilled for z-score values under -0.4, and Fulfilled for everything at or above.

Compound	Assigned Category
COC(=O)C1(C)C=C2C(=C(C)C(=O)C2C)CN1 (stereo not given)	Not fulfilled
C[C@@H]1Cc2c(cnc3c2CN(C)CC3)CO1	Fulfilled
C[C@@H]1OC=C2[C@@H](O)[C@H]3O[C@H]3C(=O)[C@]23[C@H]1[C@H]1C2=C([C@@H](O)[C@H]4O[C@H]4C2=O)[C@@H]3O[C@@H]1C	Fulfilled

Exam item: Reported z-score reaches at least -0.4 for COc1cc2c(cc1O)C(C)N(C)CC2 (stereo not given) ?
Marked response: Fulfilled

Exam item: Reported z-score reaches at least -0.4 for COC(=O)[C@@]1(Cc2ccccc2)[C@H]2c3cc(C(=O)N(C)C)n(C)c3C[C@H]2CN1C(=O)c1ccccc1 ?
Marked response: Fulfilled

----------
# Test System: Albumin (Bos taurus) (UniProt P02769)
# Sequence (P02769 whole entry, looked up): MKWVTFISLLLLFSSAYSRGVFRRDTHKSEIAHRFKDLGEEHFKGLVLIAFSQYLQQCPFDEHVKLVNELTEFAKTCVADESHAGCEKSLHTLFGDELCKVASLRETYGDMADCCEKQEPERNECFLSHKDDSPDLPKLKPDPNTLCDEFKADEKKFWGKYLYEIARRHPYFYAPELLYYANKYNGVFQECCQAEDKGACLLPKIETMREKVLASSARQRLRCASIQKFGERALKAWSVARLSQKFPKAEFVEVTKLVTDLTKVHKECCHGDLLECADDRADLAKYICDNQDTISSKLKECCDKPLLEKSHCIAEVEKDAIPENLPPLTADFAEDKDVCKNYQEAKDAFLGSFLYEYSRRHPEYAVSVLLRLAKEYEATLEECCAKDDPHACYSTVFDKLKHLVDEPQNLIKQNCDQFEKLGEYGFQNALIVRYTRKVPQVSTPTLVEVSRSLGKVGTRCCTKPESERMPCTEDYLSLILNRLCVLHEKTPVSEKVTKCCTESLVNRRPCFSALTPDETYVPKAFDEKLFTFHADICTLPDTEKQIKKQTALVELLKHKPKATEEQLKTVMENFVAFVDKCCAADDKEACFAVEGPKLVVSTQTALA
# Protocol: compounds binding labelled BSA control protein – biochemical, small-molecule microarray, Alexa647 label, 635/667 nm fluorescence, artefact control for SMM control protein annotation, profiling panel (AID 1118);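 further: score merges 667 nm emission intensity and signal-to-noise per printed compound spot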
# Run Parameters: BSA-A647 binding, fluorescence 635 nm, higher = more signal
Experimental Readout: composite z-score
Returns: the value as a bare number; no unit string appended.

Compound	Experimental Readout	Result
CCCc1cc2c(n1Cc1cccc(Cl)c1)C(C)C1CN(C(=O)c3ccccc3)C(C)(C(=O)OC)C21 (centres undefined)	composite z-score	1.01

Exam item: Give composite z-score for this entry on Albumin (Bos taurus) (UniProt P02769): C=C(CC1(C(C)NP(=O)(c2ccccc2)c2ccccc2)CC1)c1ccccc1 (centres undefined)
Marked response: 0.314

Exam item: Give composite z-score for this entry on Albumin (Bos taurus) (UniProt P02769): C[C@H]1O[C@H]2C3=C(C(=O)[C@@H]4O[C@@H]4[C@@H]3O)[C@@H]1[C@@H]1[C@@H](C)OC=C3[C@@H](O)[C@H]4O[C@H]4C(=O)[C@]312
Marked response: 0.664

Exam item: Give composite z-score for this entry on Albumin (Bos taurus) (UniProt P02769): COC(=O)[C@@]1(Cc2ccccc2)[C@H]2c3cc(C(=O)N(C)C)n(C)c3C[C@H]2CN1C(=O)c1ccccc1
Marked response: 0.958

Exam item: Give composite z-score for this entry on Albumin (Bos taurus) (UniProt P02769): O=P(c1ccccc1)(c1ccccc1)N1CC2(CC2)CC(O)(c2ccccc2)C1 (centres undefined)
Marked response: 0.498

Exam item: Give composite z-score for this entry on Albumin (Bos taurus) (UniProt P02769): C[C@@H]1OC=C2[C@@H](O)[C@H]3O[C@H]3C(=O)[C@]23[C@H]1[C@H]1C2=C([C@@H](O)[C@H]4O[C@H]4C2=O)[C@@H]3O[C@@H]1C
Marked response: -0.745

Exam item: Give composite z-score for this entry on Albumin (Bos taurus) (UniProt P02769): COC(=O)[C@@]1(Cc2ccccc2)[C@H]2c3cc(C(=O)N(C)C)[nH]c3C[C@H]2CN1C(=O)c1ccccc1
Marked response: 0.772

Exam item: Give composite z-score for this entry on Albumin (Bos taurus) (UniProt P02769): COC(=O)[C@@]1(Cc2ccc(F)cc2)[C@H]2c3cc(C(=O)N(C)C)[nH]c3C[C@H]2CN1C(=O)c1ccccc1
Marked response: 0.659

Exam item: Give composite z-score for this entry on Albumin (Bos taurus) (UniProt P02769): COc1cc2c(cc1O)C(C)N(C)CC2 (centres undefined)
Marked response: 0.122

Exam item: Give composite z-score for this entry on Albumin (Bos taurus) (UniProt P02769): COC(=O)[C@H]1C(=O)c2ccccc2O[C@@](C(=O)OC)(c2ccccc2)[C@@H]1c1ccccc1
Marked response: -0.764

Exam item: Give composite z-score for this entry on Albumin (Bos taurus) (UniProt P02769): OCc1ccc(C2=CC(C3CC3)N(Cc3sc4ccccc4c3Cl)CC2)cc1 (centres undefined)
Marked response: -0.0477

Exam item: Give composite z-score for this entry on Albumin (Bos taurus) (UniProt P02769): CCc1cc2c(nc1CC)CCN(CCC(C)=NOC)C2
Marked response: 0.802

Exam item: Give composite z-score for this entry on Albumin (Bos taurus) (UniProt P02769): COC(=O)[C@H]1[C@@H](O)[C@@]2(O)c3c(OC)cc(OC)cc3O[C@@]2(c2ccc(OC)cc2)[C@@H]1c1ccccc1
Marked response: 0.0007
